Tested on: Plasmodium falciparum Sir2 (PF13_0152, Sir2A)
Assay: Plasmodium falciparum Sir2A binding compounds – biochemical, small-molecule microarray, 635 nm fluorescence, primary screen (AID 1098);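 further: score merges spot fluorescence intensity with its signal-to-noise ratio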
Conditions: fluorescence 635 nm, higher = more signal
I'd be grateful if you could share measured composite z-score for these entries.
No unit in the answer, please; the number alone is enough.

What composite z-score value was documented for this compound, COCCOC(=O)N1C(=O)[C@@]2(c3cc(C#CCNC(N)=O)ccc31)[C@H](C(=O)N1CCCCCCC1)[C@H]1C(=O)O[C@H](c3ccccc3)[C@H](c3ccccc3)N1[C@@H]2c1ccc(OCCO)cc1 ?
0.918

Input COCCCNC(=O)[C@]1(CCS(=O)(=O)c2ccccc2)N=C(c2ccc(OCCCO)cc2)O[C@@H]1c1ccccc1
1.86

Another: CCOC(=O)C[C@H]1[C@H](OC(=O)Cc2ccc3c(c2)OCO3)[C@@H](NC(=O)c2ccccc2)c2cc(OCCCO)ccc2N1C(=O)c1ccccc1
-0.0111

Next up: O=C1OCC=C[C@H]2OC34C=CCN(CCN5CCOCC5)C(=O)[C@H]3N(CCCCCO)C(=O)[C@@H]4[C@@H]12 (some centres not stated)
1.35

Can you handle CC(C)CNC(=O)[C@@]1(c2ccc([N+](=O)[O-])cc2)CC(=O)N(C(C)C)[C@@H]1c1ccc(CO)cc1 next?
0.832

Now this one: CC(C)C(CO)N1C(=O)[C@@H]2[C@H]3C(=O)OCC=C[C@H]3OC23C=CCN(CCN2CCOCC2)C(=O)[C@@H]13 (some centres not stated)
1.15

Ok, now OCc1ccc(-c2cc[n+](Cc3cccc(OC(F)(F)F)c3)cc2)cc1
0.802
